Exercise: for every item that follows, state its recorded GI50.
tested on: TK-10; assay: NCI tumour cell line growth inhibition, 48 h
Active and inactive are the calls of the source. No stated cut-off is given here; in the data, active = GI50 up to about 1.1 µM and inactive = higher.

Give a short answer stating reported GI50 for "CCOC(=O)c1c(SCCN(CC)CC)n(-c2ccccc2)c(=S)n(-c2ccccc2)c1=O" .
1.81 µM (inactive)

Give a short answer stating reported GI50 for "Cn1c(N)cc(=O)nc1N" .
> 100 µM (inactive)

Give a short answer stating reported GI50 for CCC1([N+](=O)[O-])CC2C=CC1C2 (stereo not given) .
> 100 µM (inactive)

Give a short answer stating reported GI50 for Cc1cc(O)c(C=O)c(C)c1CCC1(C)C=Cc2cc(O)ccc2O1 (stereo not given) .
46.5 µM (inactive)

Give a short answer stating reported GI50 for "COC(=O)CCC(=O)Nc1ccc(Cl)cc1C" .
> 100 µM (inactive)

Give a short answer stating reported GI50 for "CCOC(=O)C1=C(C(=O)c2ccc(C)cc2)C(c2cccc([N+](=O)[O-])c2)C(C(=O)c2ccc(C)cc2)=C(C(=O)OCC)N1" .
17.2 µM (inactive)

Give a short answer stating reported GI50 for C[C@@H]1C[C@@H]2OC(=O)[C@]3(C)[C@H]2[C@@H](OC3(C)O)[C@]2(C)C(=O)C=C[C@@H]12 (stereo not given in full) .
18 µM (inactive)

Give a short answer stating reported GI50 for "Cc1nn(C(=O)CC(=O)Nc2ccccc2Cl)c(C)c1/N=N/c1ccccc1Cl" .
> 100 µM (inactive)

Give a short answer stating reported GI50 for "COc1cc(OC)c2c(=O)cc(-c3ccccc3F)[nH]c2c1" .
39.9 µM (inactive)

Give a short answer stating reported GI50 for "C/C(CCn1[nH]c(=O)ccc1=O)=N\OCCCc1ccccc1" .
> 100 µM (inactive)

====

system: SR; test: NCI tumour cell line growth inhibition, 48 h
Activity calls are given as the source filed them. Rule as the data show it: active = GI50 up to about 1.1 µM and inactive = higher.
Pick one and only one: true (1) = active, false (0) = inactive

Hi team, can someone confirm the assay call for COc1ccc(C(=O)/C=C/c2ccc(Oc3cc(C(=O)/C=C/c4ccc(O)cc4)c(O)cc3OC)cc2)c(O)c1 [RHUSCHALCONE I] ?
false (0)

Hi team, can someone confirm the assay call for OCC(O)C(O)C(C=NNc1ncnc2ccc(Br)cc12)=NNc1ncnc2ccc(Br)cc12 (centres undefined) ?
true (1)

Hi team, can someone confirm the assay call for "Cc1ccc(S(=O)(=O)NCCCSCCO)cc1" ?
false (0)

Hi team, can someone confirm the assay call for CC(=O)OCC1OC(NC(=S)N/N=C2\CC(c3ccccc3)Oc3ccccc32)C(OC(C)=O)C(OC(C)=O)C1OC(C)=O (centres undefined) ?
false (0)

Hi team, can someone confirm the assay call for CN1C(=O)CCC1(O)C1C=CC=CC1 (centres undefined) ?
false (0)

Hi team, can someone confirm the assay call for COc1ccc(CC2NC(=O)/C=C/CC(C(C)C3OC3c3ccccc3)OC(=O)C(CC(C)C)OC(=O)C(C)CNC2=O)cc1Cl (centres undefined) ?
true (1)

Hi team, can someone confirm the assay call for "COC(=O)Cc1ccc2c(c1)Sc1ccc(CC(=O)OC)cc1N2C" ?
false (0)

Hi team, can someone confirm the assay call for "CCc1nc(N)nc(N)c1-c1ccc2nnn(O)c2c1" ?
false (0)

Hi team, can someone confirm the assay call for COc1cc(C2c3cc4c(cc3[C@@H](Nc3ccc5c(c3)OCCO5)C3COC(=O)[C@H]23)OCO4)cc(OC)c1O (some centres undefined) ?
true (1)
